- Test system: SEM cells
- Protocol Description: cell viability relative to DMSO control; higher = less cytotoxic
- Settings: HPLM + 10% dialyzed FBS; 48 h; 0.569 µM
Reported cell viability values for the following compounds.
The number alone won't do; follow it with the unit.

Example entries and their recorded answers appear below.
{"Smiles Text": "COc1cc[nH]c2ncc(C(=O)C(=O)N3CCN(C(=O)c4ccccc4)C[C@H]3C)c1-2", "Parameter Measured": "cell viability", "Recorded Measurement": "92%"}
{"Smiles Text": "C=CC(=O)Nc1cc2c(Nc3ccc(F)c(Cl)c3)ncnc2cc1OCCCN1CCOCC1", "Parameter Measured": "cell viability", "Recorded Measurement": "114%"}
{"Smiles Text": "CC[C@H]1OC(=O)[C@H](C)C(=O)[C@H](C)[C@@H](O[C@H]2O[C@H](C)C[C@H](N(C)C)[C@H]2O)[C@](C)(OC)C[C@@H](C)C(=O)[C@H](C)[C@H]2N(CCCCn3cnc(-c4cccnc4)c3)C(=O)O[C@]12C", "Parameter Measured": "cell viability", "Recorded Measurement": "105%"}

Here is another compound to look at.
*Q* Given `Cc1cnc(Nc2ccc(F)cc2Cl)nc1-c1c[nH]c(C(=O)N[C@H](CO)c2cccc(Cl)c2)c1` , respond with its cell viability.
*A* 134%

====

Reported cell viability values for the following compounds.
- Tested on: P12-Ichikawa
- Protocol Description: cell viability relative to DMSO control; higher = less cytotoxic
- Settings: RPMI 5 mM glucose + 10% FBS; 48 h; 1.71 µM
Field format: number, assumed %, no unit text.

{"Compound": "C[C@@H](CN1CC(=O)NC(=O)C1)N1CC(=O)NC(=O)C1", "Parameter Measured": "cell viability", "Output Unit": "%", "Recorded Measurement": 18.1}
{"Compound": "CN1\\C=N/C2=CC=C(NC3=CC(=CC=C3C)NC(=O)C4=CC(=CC=C4)C(C)(C)C#N)C=C2C1=O", "Parameter Measured": "cell viability", "Output Unit": "%", "Recorded Measurement": 81.3}
{"Compound": "Cc1cccc(Nc2ccncc2[S+](=O)([O-])NC(=O)NC(C)C)c1", "Parameter Measured": "cell viability", "Output Unit": "%", "Recorded Measurement": 94.1}

*Q* Given `CNC(=O)c1ccc(Nc2cc(Nc3ccccc3[S+](=O)([O-])C(C)C)c3cc[nH]c3n2)nc1` , respond with its cell viability.
*A* 66.7

*Q* Given `Oc1nc(-c2ccc(C(F)(F)F)cc2)nc2c1CSCC2` , respond with its cell viability.
*A* 99

*Q* Given O=C(c1ccccc1)c1ccc2n1CCC2C(=O)O (stereo not given) , respond with its cell viability.
*A* 96.3

*Q* Given COC(=O)C\1=C(C)\N\C(=C(/C1C2=CC=CC3=NON=C23)C(=O)OC(C)C)C (stereo not given) , respond with its cell viability.
*A* 94.2

*Q* Given `O=C(O)c1cccnc1Nc1cccc(C(F)(F)F)c1` , respond with its cell viability.
*A* 132

*Q* Given `O=C(O)c1cc(/N=N/c2ccc([S+](=O)([O-])Nc3ccccn3)cc2)ccc1O` , respond with its cell viability.
*A* 122

*Q* Given `Nc1c2c(nc3ccccc13)CCCC2` , respond with its cell viability.
*A* 64.9

====

- Tested on: NOMO1
- Protocol Description: cell viability relative to DMSO control; higher = less cytotoxic
- Settings: RPMI 5 mM glucose + 10% dialyzed FBS; 48 h; 1.71 µM
Reported cell viability values for the following compounds.
Field format: number, assumed %, no unit text.

Example entries and their recorded answers appear below.
{"Smiles Text": "COC1=CC=C(C(=C1)OC(C)C)C/2=N/[C@@H]([C@@H](N2C(=O)N3CCNC(=O)C3)C4=CC=C(Cl)C=C4)C5=CC=C(Cl)C=C5", "System": "NOMO1", "Parameter Measured": "cell viability", "Recorded Measurement": 103}
{"Smiles Text": "Cc1ccnc2c1NC(=O)c1cccnc1N2C1CC1", "System": "NOMO1", "Parameter Measured": "cell viability", "Recorded Measurement": 97.4}
{"Smiles Text": "CCCCOc1c(C(=O)c2c(F)cc(C)cc2F)cnc2[nH]ncc12", "System": "NOMO1", "Parameter Measured": "cell viability", "Recorded Measurement": 86.7}

*Q* Given `CC[C@H]1OC(=O)[C@H](C)C(=O)[C@H](C)[C@@H](O[C@H]2O[C@H](C)C[C@H](N(C)C)[C@H]2O)[C@](C)(OC)C[C@@H](C)C(=O)[C@H](C)[C@H]2N(CCCCn3cnc(-c4cccnc4)c3)C(=O)O[C@]12C` , respond with its cell viability.
*A* 98.8

*Q* Given `O=C(O)c1cc(/N=N/c2ccc([S+](=O)([O-])Nc3ccccn3)cc2)ccc1O` , respond with its cell viability.
*A* 111
